Read-out: Collagen I, COL1A1 (gene 1277)
PROTOCOL: BSK_MyoF_CollagenI: BioMAP Diversity Plus: MyoF Assay for Collagen I Biomarker Activity (AID 2284238)
ASSAY_CONTEXT: primary human lung fibroblasts
Calls of active or inactive are those of the source. Rule for the calls: active = hit-call score of the fitted dose curve at least 0.9, where 1 is the maximum; inactive = score below 0.9.
METRIC: AC50

INSERT INTO measurements (compound, result) VALUES
  ('O=C1OC[C@H](Cc2cccc(O)c2)[C@H]1Cc1cccc(O)c1', 'inactive'),
  ('CC=Cc1ccc(OCC)c(O)c1', 'inactive'),
  ('CC(=O)C1(C)CC2=C(CCCC2(C)C)CC1C (configuration not stated)', '24.7 µM (active)'),
  ('CSCCC=O', 'inactive'),
  ('CS(=O)(=O)c1ccc(C2=C(c3ccccc3)C(=O)OC2)cc1', 'inactive'),
  ('Clc1cc(Cl)c(-c2c(Cl)c(Cl)cc(Cl)c2Cl)cc1Cl', '2.99 µM (active)'),
  ('CC(C)(N=C=O)c1cccc(C(C)(C)N=C=O)c1', 'inactive'),
  ('O=C1OC2(c3ccccc31)c1ccc(O)c(Br)c1Oc1c2ccc(O)c1Br', 'inactive');

Exercise: Bench note: what AC50 did COc1ccc(OC)c(N=Nc2c(O)ccc3ccccc23)c1 show?
Key: inactive

----------
PROTOCOL: ATG_CMV_CIS: Attagene CIS-FACTORIAL HepG2 Assay for human CMV (Internal Marker) (AID 2282928);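 note: endpoint acts as a background internal control marker rather than a target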
ASSAY_CONTEXT: HepG2 CMV promoter reporter, transcription factor profiling; actives raise or lower the signal
Protocol: ATG_CIS is a cell-based, multiplexed-readout assay that uses HepG2, a human liver cell line, with measurements taken at 24 hours after chemical dosing in a 24-well plate.ATG_CMV_CIS is one of 52 assay component(s) measured or calculated from the ATG_CIS assay. […] This assay endpoint, ATG_CMV_CIS, was analyzed with bidirectional fitting relative to DMSO as the negative control and baseline of activity. […]
The source made the active and inactive calls. Rule for the calls: active = hit-call score of the fitted dose curve at least 0.9, where 1 is the maximum; inactive = score below 0.9.
Outcome field: choose from T for active, F for inactive

Past entries and their recorded results:
INSERT INTO results (compound, class) VALUES
  ('[Cl][Au]([Cl])[Cl]', 'F'),
  ('C[C@H]1O[C@@H](O[C@H]2[C@@H](O)C[C@H](O[C@H]3[C@@H](O)C[C@H](O[C@H]4CC[C@@]5(C)[C@H](CC[C@@H]6[C@@H]5C[C@@H](O)[C@]5(C)[C@@H](C7=CC(=O)OC7)CC[C@]65O)C4)O[C@@H]3C)O[C@@H]2C)C[C@H](O)[C@@H]1O', 'T');

Exercise: For CCCCCCCCN1CCCC1=O , which call appears in the assay record?
Key: F

Exercise: For O=C1NC2NC(=O)NC2N1 (stereo unspecified) , which call appears in the assay record?
Key: F

Exercise: For O=CN1CCOCC1 , which call appears in the assay record?
Key: F

Exercise: For CCCCCCCCCCCCCCCC(=O)OC/C=C(C)/C=C/C=C(C)/C=C/C1=C(C)CCCC1(C)C , which call appears in the assay record?
Key: F

Exercise: For C=CCOC(=O)CCCCCC , which call appears in the assay record?
Key: F

Exercise: For COc1ccc(CCN2CCC(Nc3nc4ccccc4n3Cc3ccc(F)cc3)CC2)cc1 , which call appears in the assay record?
Key: F

Exercise: For NCc1ccco1 , which call appears in the assay record?
Key: F

Exercise: For CCc1ncc(C)[nH]1 , which call appears in the assay record?
Key: F

Exercise: For Nc1ccn([C@H]2CS[C@@H](CO)O2)c(=O)n1 , which call appears in the assay record?
Key: F

----------
SUBJECT_OF_TEST: Bile acid receptor (Homo sapiens) (UniProt Q96RI1)
Sequence (Q96RI1 whole entry, looked up): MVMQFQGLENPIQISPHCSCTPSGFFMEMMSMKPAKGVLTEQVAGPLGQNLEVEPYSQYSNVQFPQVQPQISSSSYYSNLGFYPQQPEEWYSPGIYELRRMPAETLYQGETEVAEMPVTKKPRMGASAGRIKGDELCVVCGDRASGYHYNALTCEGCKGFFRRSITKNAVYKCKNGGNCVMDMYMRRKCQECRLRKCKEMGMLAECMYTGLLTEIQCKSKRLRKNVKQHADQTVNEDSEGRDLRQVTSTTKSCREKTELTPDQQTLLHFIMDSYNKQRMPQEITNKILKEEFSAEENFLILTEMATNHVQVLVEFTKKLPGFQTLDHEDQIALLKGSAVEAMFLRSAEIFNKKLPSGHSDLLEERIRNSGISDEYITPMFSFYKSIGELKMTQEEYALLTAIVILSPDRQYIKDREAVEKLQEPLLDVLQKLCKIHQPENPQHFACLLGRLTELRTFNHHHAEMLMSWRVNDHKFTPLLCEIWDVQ
PROTOCOL: ATG_FXR_TRANS: Attagene TRANS-FACTORIAL HepG2 Assay for Farnesoid X Receptor (FXR) (AID 2282979);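 note: hits raise reporter mRNA above DMSO so AC50 marks FXR activation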
ASSAY_CONTEXT: HepG2 Attagene TRANS FXR-GAL4 reporter transcription
Inconclusive results are not listed. Active and inactive are the calls of the source. The calls were made as follows: active = hit-call score of the fitted dose curve at least 0.9, where 1 is the maximum; inconclusive = response in the unintended direction; inactive = score below 0.9.
METRIC: outcome

INSERT INTO measurements (compound, metric, result) VALUES
  ('IC(I)I', 'outcome', 'inactive'),
  ('CCCCCCCCCCCCCCCC(=O)OC/C=C(C)/C=C/C=C(C)/C=C/C1=C(C)CCCC1(C)C', 'outcome', 'inactive'),
  ('CCCCCC(C=O)=Cc1ccccc1', 'outcome', 'inactive'),
  ('CCCCCCC(O)CCCCCCCCCCC(=O)O (configuration not stated)', 'outcome', 'inactive');

Exercise: Enter reported outcome observed with Bile acid receptor (Homo sapiens) (UniProt Q96RI1) for C1CCOC1
Key: inactive

Exercise: Enter reported outcome observed with Bile acid receptor (Homo sapiens) (UniProt Q96RI1) for N#Cc1cscn1
Key: inactive

Exercise: Enter reported outcome observed with Bile acid receptor (Homo sapiens) (UniProt Q96RI1) for CCc1cc(C(C)(C)C)c(O)c(C(C)(C)C)c1
Key: inactive

Exercise: Enter reported outcome observed with Bile acid receptor (Homo sapiens) (UniProt Q96RI1) for CC1(C)O[C@@H]2C[C@H]3[C@@H]4CCC5=CC(=O)C=C[C@]5(C)[C@@]4(F)[C@@H](O)C[C@]3(C)[C@]2(C(=O)CO)O1
Key: inactive

Exercise: Enter reported outcome observed with Bile acid receptor (Homo sapiens) (UniProt Q96RI1) for CCCCCCC(C)Nc1ccc(Nc2ccccc2)cc1 (configuration not stated)
Key: inactive

Exercise: Enter reported outcome observed with Bile acid receptor (Homo sapiens) (UniProt Q96RI1) for O=C(Nc1ccc([N+](=O)[O-])cc1)Nc1ccc([N+](=O)[O-])cc1 (tested in a mixture with another compound)
Key: inactive

Exercise: Enter reported outcome observed with Bile acid receptor (Homo sapiens) (UniProt Q96RI1) for CC(=O)O[C@H]1C[C@@H]2CC[C@@]1(C)C2(C)C
Key: inactive

Exercise: Enter reported outcome observed with Bile acid receptor (Homo sapiens) (UniProt Q96RI1) for COC(=O)Nc1ccc(Cl)c(Cl)c1
Key: inactive

----------
PROTOCOL: BSK_3C_SRB: Viability Assessment in the BioMAP Diversity Plus: 3C Assay (AID 2283023);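 note: cells read 24 h after compound dosing; fitted both ways against DMSO so a hit may be signal rise or drop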
ASSAY_CONTEXT: primary human endothelial cells (HUVEC)
Activity calls are given as the source filed them. The calls were made as follows: active = hit-call score of the fitted dose curve at least 0.9, where 1 is the maximum; inactive = score below 0.9.
Outcome field: choose from 1 (yes) for active, 0 (no) for inactive

INSERT INTO results (compound, class) VALUES
  ('c1ccc2cc(Nc3ccc(Nc4ccc5ccccc5c4)cc3)ccc2c1', '0 (no)'),
  ('Clc1cc(Cl)c(-c2c(Cl)c(Cl)cc(Cl)c2Cl)cc1Cl', '1 (yes)'),
  ('CCCCCC(C=O)=Cc1ccccc1', '1 (yes)');

Turning now to a further compound:
Exercise: For c1ccc(Oc2ccccc2)cc1 , which call appears in the assay record?
Key: 1 (yes)

----------
SUBJECT_OF_TEST: Hypoxia-inducible factor 1-alpha (Homo sapiens)
PROTOCOL: ATG_HIF1a_CIS: Attagene CIS-FACTORIAL HepG2 Assay for human Hypoxia Inducible Factor 1 (HIF1A) (AID 2282951)
ASSAY_CONTEXT: HepG2 Attagene cis-factorial HIF1a reporter transcription; actives raise or lower the signal
The source made the active and inactive calls. Rule for the calls: active = hit-call score of the fitted dose curve at least 0.9, where 1 is the maximum; inactive = score below 0.9.
Outcome field: choose from active, inactive

Past entries and their recorded results:
INSERT INTO measurements (compound, class) VALUES
  ('OCc1cccc(Oc2ccccc2)c1', 'inactive'),
  ('C=CC(=O)OCCC#N', 'active'),
  ('CN(C)CCOc1ccc(/C(=C(/CCCl)c2ccccc2)c2ccccc2)cc1', 'inactive'),
  ('CC(C)CCCCCCc1ccc(OCCOCCO)cc1', 'inactive'),
  ('CCCCC(CC)COC(C)=O (configuration not stated)', 'inactive');

Exercise: For CCCCCCCCN1CCCC1=O , which call appears in the assay record?
Key: active

Exercise: For C=C(C)C(=O)OCCOCCOCCOCCOC(=O)C(=C)C , which call appears in the assay record?
Key: inactive

----------
PROTOCOL: ATG_TAL_CIS: Attagene CIS-FACTORIAL HepG2 Assay for human TAL Basal Promoter (AID 2282966);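 note: background control endpoint measuring basal TAL promoter reporter mRNA not a specific factor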
ASSAY_CONTEXT: HepG2 Attagene cis-factorial TAL promoter reporter; actives raise or lower the signal
Activity calls are given as the source filed them. How the source made its calls: active means hit-call score of the fitted dose curve at least 0.9, where 1 is the maximum; inactive means score below 0.9.
Outcome field: choose from 1 (active), -1 (inactive)

INSERT INTO measurements (molecule, class) VALUES
  ('CC(C)(C)CC(C)(C)c1ccc(OCCOCC[N+](C)(C)Cc2ccccc2)cc1', -1),
  ('Cc1c(C2(c3cc(Br)c(O)c(Br)c3C)OS(=O)(=O)c3ccccc32)cc(Br)c(O)c1Br', -1),
  ('CCCCCCOC(=O)C(C)C', -1);

Exercise: For CN1CCOCC1 , which call appears in the assay record?
Key: -1

Exercise: For C=CC(C)C#N (stereo unspecified) , which call appears in the assay record?
Key: -1

----------
SUBJECT_OF_TEST: human Peroxisome Proliferator-activated Receptor alpha (PPARa), PPARA (gene 5465)
PROTOCOL: ATG_PPARa_TRANS: Attagene TRANS-FACTORIAL HepG2 Assay for human Peroxisome Proliferator-activated Receptor alpha (PPARa) (AID 2283001)
Inconclusive results are not listed. The source made the active and inactive calls. Rule for the calls: active = hit-call score of the fitted dose curve at least 0.9, where 1 is the maximum; inconclusive = response in the unintended direction; inactive = score below 0.9.
Outcome field: choose from active, inactive

INSERT INTO results (molecule, class) VALUES
  ('Cc1cc(S(=O)(=O)O)ccc1N=Nc1c(O)ccc2ccccc12', 'inactive'),
  ('CCc1cc(Cc2cc(CC)cc(C(C)(C)C)c2O)c(O)c(C(C)(C)C)c1', 'active'),
  ('[O-]n1ccccc1=S.[O-]n1ccccc1=S.[Zn+2]', 'inactive'),
  ('COc1cc([C@@H]2c3cc4c(cc3[C@@H](O[C@@H]3O[C@@H]5CO[C@@H](C)O[C@H]5[C@H](O)[C@H]3O)[C@H]3COC(=O)[C@H]23)OCO4)cc(OC)c1O', 'inactive'),
  ('CC=Cc1ccc(OC)c(OC)c1', 'inactive'),
  ('COS(=O)(=O)O', 'inactive');

Exercise: For CCC(=O)OCCOc1ccccc1 , which call appears in the assay record?
Key: inactive

Exercise: For c1ccc2[nH]cnc2c1 , which call appears in the assay record?
Key: inactive

Exercise: For O=C(O)CNc1ccccc1 , which call appears in the assay record?
Key: inactive

Exercise: For COc1ccc(CCC(C)=O)cc1 , which call appears in the assay record?
Key: inactive

Exercise: For OCc1ccc(Cl)cc1Cl , which call appears in the assay record?
Key: inactive

Exercise: For CCC(C)c1cc([N+](=O)[O-])cc([N+](=O)[O-])c1OC(=O)OC(C)C (configuration not stated) , which call appears in the assay record?
Key: inactive
